- ASSAY_REMARKS: Selectivity index, ratio of IC50 for mouse astrocytes to IC50 for human U373 cells
- Set-up: species or system U-373MG ATCC
Quick list: Ratio IC50 per entry.
PROPERTY_MEASURED: Ratio IC50

[[record]]
molecule = "CC1(C)CC(NC(=S)Nc2cccc([N+](=O)[O-])c2)c2cc(Br)ccc2O1 (stereo not given)"
comparator = "="
result = 2

[[record]]
molecule = "CC1(C)CC(NC(=S)Nc2ccc(Cl)cc2)c2cc(Br)ccc2O1 (stereo not given)"
comparator = "="
result = 2

[[record]]
molecule = "CC1(C)CC(NC(=S)Nc2ccc(C#N)cc2)c2cc(Br)ccc2O1 (stereo not given)"
comparator = "="
result = 2

[[record]]
molecule = "CC1(C)CC(NC(=O)Nc2ccc(Cl)cc2)c2cc(Br)ccc2O1 (stereo not given)"
comparator = "="
result = 5

[[record]]
molecule = "CC1(C)CC(NC(=S)Nc2ccc(C#N)cc2)c2cc(F)ccc2O1 (stereo not given)"
comparator = "="
result = 3

[[record]]
molecule = "CC1(C)CC(NC(=S)Nc2ccc([N+](=O)[O-])cc2)c2cc(Br)ccc2O1 (stereo not given)"
comparator = "<"
result = 2

[[record]]
molecule = "CC1(C)CC(NC(=S)Nc2cccc(Cl)c2)c2cc(Br)ccc2O1 (stereo not given)"
comparator = "<"
result = 2

[[record]]
molecule = "CC1(C)CC(NC(=S)Nc2ccc([N+](=O)[O-])cc2)c2cc(F)ccc2O1 (stereo not given)"
comparator = "="
result = 5

[[record]]
molecule = "CC1(C)CC(NC(=S)Nc2cccc(C#N)c2)c2cc(Br)ccc2O1 (stereo not given)"
comparator = "<"
result = 5

[[record]]
molecule = "CC1(C)CC(NC(=O)Nc2ccccc2Cl)c2cc(Br)ccc2O1 (stereo not given)"
comparator = ">"
result = 10


* * *

- System: T98G
- ASSAY_REMARKS: Growth inhibition of human T98G cells after 72 hrs by MTT assay
- Type: functional, cell-based
Quick list: IC50 per entry.
PROPERTY_MEASURED: IC50 (µM)

[[record]]
molecule = "CCNC(=S)NC1CC(C)(C)Oc2ccc(Cl)cc21 (stereo not drawn)"
property_measured = "IC50"
unit_abbreviation = "µM"
comparator = ">"
result = 100

[[record]]
molecule = "CC1(C)CC(NC(=O)NCc2ccccc2)c2cc(F)ccc2O1 (stereo not drawn)"
property_measured = "IC50"
unit_abbreviation = "µM"
comparator = "="
result = 49

[[record]]
molecule = "CC1(C)CC(NC(=O)NS(=O)(=O)c2ccccc2)c2cc(Cl)ccc2O1 (stereo not drawn)"
property_measured = "IC50"
unit_abbreviation = "µM"
comparator = ">"
result = 100

[[record]]
molecule = "CC1(C)CC(NC(=O)Nc2ccccc2Cl)c2cc(Cl)ccc2O1 (stereo not drawn)"
property_measured = "IC50"
unit_abbreviation = "µM"
comparator = "="
result = 20

[[record]]
molecule = "CC1(C)CC(NC(=S)Nc2ccc([N+](=O)[O-])cc2)c2cc(Br)ccc2O1 (stereo not drawn)"
property_measured = "IC50"
unit_abbreviation = "µM"
comparator = "="
result = 5

[[record]]
molecule = "CC1(C)CC(NC(=S)NCc2ccccc2)c2cc(F)ccc2O1 (stereo not drawn)"
property_measured = "IC50"
unit_abbreviation = "µM"
comparator = "="
result = 40

[[record]]
molecule = "CC1(C)CC(NC(=S)Nc2cccc([N+](=O)[O-])c2)c2cc(Br)ccc2O1 (stereo not drawn)"
property_measured = "IC50"
unit_abbreviation = "µM"
comparator = "="
result = 4

[[record]]
molecule = "CC1(C)CC(NC(=O)NCc2ccccc2)c2cc(Cl)ccc2O1 (stereo not drawn)"
property_measured = "IC50"
unit_abbreviation = "µM"
comparator = "="
result = 15

[[record]]
molecule = "CC1(C)CC(NC(=S)Nc2ccc([N+](=O)[O-])cc2)c2cc(Cl)ccc2O1 (stereo not drawn)"
property_measured = "IC50"
unit_abbreviation = "µM"
comparator = "="
result = 4

[[record]]
molecule = "CC1(C)CC(NC(=S)NCc2ccccc2)c2cc(Cl)ccc2O1 (stereo not drawn)"
property_measured = "IC50"
unit_abbreviation = "µM"
comparator = "="
result = 99

[[record]]
molecule = "COc1ccccc1NC(=S)NC1CC(C)(C)Oc2ccc(Br)cc21 (stereo not drawn)"
property_measured = "IC50"
unit_abbreviation = "µM"
comparator = "="
result = 42

[[record]]
molecule = "O=[N+]([O-])c1ccc(NC(=S)NC2CCOc3ccc(Cl)cc32)cc1 (stereo not drawn)"
property_measured = "IC50"
unit_abbreviation = "µM"
comparator = "="
result = 12

[[record]]
molecule = "CC1(C)CC(NC(=O)Nc2ccccc2Cl)c2cc(Br)ccc2O1 (stereo not drawn)"
property_measured = "IC50"
unit_abbreviation = "µM"
comparator = "="
result = 11

[[record]]
molecule = "CC1(C)CC(NC(=S)Nc2cccc(C#N)c2)c2cc(Cl)ccc2O1 (stereo not drawn)"
property_measured = "IC50"
unit_abbreviation = "µM"
comparator = "="
result = 10

[[record]]
molecule = "CC1(C)CC(NC(=S)NCc2ccccc2)c2cc(Br)ccc2O1 (stereo not drawn)"
property_measured = "IC50"
unit_abbreviation = "µM"
comparator = "="
result = 54

[[record]]
molecule = "O=[N+]([O-])c1ccc(NC(=S)NCc2cccc(Cl)c2)cc1"
property_measured = "IC50"
unit_abbreviation = "µM"
comparator = "="
result = 20

[[record]]
molecule = "Cn1nnc2c(C(N)=O)ncn2c1=O [TEMOZOLOMIDE]"
property_measured = "IC50"
unit_abbreviation = "µM"
comparator = "="
result = 879

[[record]]
molecule = "CC1(C)CC(NC(=O)Nc2ccc(Cl)cc2)c2cc(F)ccc2O1 (stereo not drawn)"
property_measured = "IC50"
unit_abbreviation = "µM"
comparator = "="
result = 30

[[record]]
molecule = "CC(C)NC(=S)NC1CC(C)(C)Oc2ccc(Cl)cc21 (stereo not drawn)"
property_measured = "IC50"
unit_abbreviation = "µM"
comparator = "="
result = 91

[[record]]
molecule = "CC1(C)CC(NC(=O)NCc2ccccc2)c2cc(Br)ccc2O1 (stereo not drawn)"
property_measured = "IC50"
unit_abbreviation = "µM"
comparator = "="
result = 38

[[record]]
molecule = "CC1(C)CC(NC(=S)Nc2ccccc2)c2cc(Cl)ccc2O1 (stereo not drawn)"
property_measured = "IC50"
unit_abbreviation = "µM"
comparator = "="
result = 37

[[record]]
molecule = "CC1(C)CC(NC(=S)Nc2ccc(C#N)cc2)c2cc(Cl)ccc2O1 (stereo not drawn)"
property_measured = "IC50"
unit_abbreviation = "µM"
comparator = "="
result = 10

[[record]]
molecule = "CC1(C)CC(NC(=O)Nc2cccc(Cl)c2)c2cc(F)ccc2O1 (stereo not drawn)"
property_measured = "IC50"
unit_abbreviation = "µM"
comparator = "="
result = 45


* * *

- ASSAY_REMARKS: Selectivity index, ratio of IC50 for mouse astrocytes to IC50 for human U373 cells
- Set-up: species or system U-373MG ATCC
PROPERTY_MEASURED: Ratio IC50

[[record]]
molecule = "CC1(C)CC(NC(=S)Nc2cccc([N+](=O)[O-])c2)c2cc(Cl)ccc2O1 (configuration not stated)"
comparator = "="
result = 3

[[record]]
molecule = "CC1(C)CC(NC(=S)Nc2cccc([N+](=O)[O-])c2)c2cc(F)ccc2O1 (configuration not stated)"
comparator = "="
result = 2

[[record]]
molecule = "CC1(C)CC(NC(=S)Nc2ccc([N+](=O)[O-])cc2)c2cc(Cl)ccc2O1 (configuration not stated)"
comparator = "="
result = 2

[[record]]
molecule = "CC1(C)CC(NC(=S)Nc2ccc(C#N)cc2)c2cc(Cl)ccc2O1 (configuration not stated)"
comparator = "="
result = 3

[[record]]
molecule = "CC1(C)CC(NC(=O)Nc2ccccc2Cl)c2cc(Cl)ccc2O1 (configuration not stated)"
comparator = ">"
result = 10

[[record]]
molecule = "CC1(C)CC(NC(=S)Nc2ccccc2Cl)c2cc(Br)ccc2O1 (configuration not stated)"
comparator = "<"
result = 5

[[record]]
molecule = "CC1(C)CC(NC(=S)Nc2cccc(C#N)c2)c2cc(Cl)ccc2O1 (configuration not stated)"
comparator = "<"
result = 5


* * *

- ASSAY_REMARKS: Growth inhibition of human U373 cells after 72 hrs by MTT assay
- Type: functional, cell-based, U-373MG ATCC
- CONDITION_DESCRIPTION: U373 MG
PROPERTY_MEASURED: IC50 (µM)

[[record]]
compound = "CCNC(=S)NC1CC(C)(C)Oc2ccc(Cl)cc21 (stereo not given)"
unit_abbreviation = "µM"
result = 96

[[record]]
compound = "O=[N+]([O-])c1cccc(NC(=S)NC2CCOc3ccc(Cl)cc32)c1 (stereo not given)"
unit_abbreviation = "µM"
result = 8

[[record]]
compound = "CC1(C)CC(NC(=S)Nc2cccc([N+](=O)[O-])c2)c2cc(Cl)ccc2O1 (stereo not given)"
unit_abbreviation = "µM"
result = 3

[[record]]
compound = "COc1ccc(NC(=S)NC2CC(C)(C)Oc3ccc(Br)cc32)cc1 (stereo not given)"
unit_abbreviation = "µM"
result = 40

[[record]]
compound = "CC1(C)CC(NC(=S)Nc2ccc([N+](=O)[O-])cc2)c2cc(Cl)ccc2O1 (stereo not given)"
unit_abbreviation = "µM"
result = 3


These measurements were taken from ChEMBL document CHEMBL2040777.
